Property: IC50; scope: individual molecules
Tested target: human ALK5 (kinase domain, ALK5 T204D) (Homo sapiens, UniProt P36897, T204D)
Construct: The kinase domain of human ALK5 (amino acids 200-503); made in house; host or cells: insect cells (baculovirus)
Sequence (P36897 200-503 T204D): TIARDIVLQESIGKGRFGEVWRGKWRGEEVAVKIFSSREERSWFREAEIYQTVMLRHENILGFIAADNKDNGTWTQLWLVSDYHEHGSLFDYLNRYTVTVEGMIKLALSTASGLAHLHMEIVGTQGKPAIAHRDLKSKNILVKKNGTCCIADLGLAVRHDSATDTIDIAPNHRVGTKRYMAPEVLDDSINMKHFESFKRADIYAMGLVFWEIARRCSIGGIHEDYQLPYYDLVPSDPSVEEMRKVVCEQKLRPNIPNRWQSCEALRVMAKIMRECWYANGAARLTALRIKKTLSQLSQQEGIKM
Procedure text: ALK5 kinase assay ([33P] phosphate incorporation into casein)
Format: biochemical
Condition set: casein substrate, 1 μM unlabelled ATP
Return type: number; implicit unit nM.

Known IC50 results, listed for orientation:
| Molecule | Tested target | Output unit | Endpoint result |
| --- | --- | --- | --- |
| COc1cccc(-c2cncc(-c3cc(-c4cccc(C)n4)nc4[nH]ccc34)c2)c1 [Example 60] | human ALK5 (kinase domain, ALK5 T204D) (Homo sapiens, UniProt P36897, T204D) | nM | 96 |
| Cc1cccc(-c2cc(-c3cncc(-c4ccc(CCC(=O)O)cc4)c3)c3cc[nH]c3n2)n1 [Example 159] | human ALK5 (kinase domain, ALK5 T204D) (Homo sapiens, UniProt P36897, T204D) | nM | 6.5 |

// below: IC50 requested for another molecule
Q. Dear colleague, please send me the reported IC50 for Cc1cccc(-c2nc(-c3cncc(-c4cccc(C5CNCCN5)c4)c3)c3cc[nH]c3n2)n1 (stereo not drawn) [Example 99] when you can.
A. 14

The origin of these recorded values is patent US8314112B2.
